tested on: 991263-137-R1-J2-PDC complex spheroid viability; assay: Anticancer human tumor 991263-137-R1-J2-PDC patient-derived colon adenocarcinoma cell line growth inhibition [POLQ]; conditions: curve of first compound; second compound 10 µM;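 note: spheroids exposed to compounds for 7 days before readout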
pIC50: −log10 of the molar value.
endpoint: pIC50

>>> measurement("COc1cc2cc(C(=O)CCC(=O)O)sc2cc1OC + Nc1ccc(C#CCN(C(=O)Cc2ncc(C(F)(F)F)cc2C(F)(F)F)c2ccc(F)cc2)nn1")
"< 5.00"
>>> measurement("C=CC(=O)N1CCN(c2nc(=O)n(-c3c(C)ccnc3C(C)C)c3nc(-c4c(O)cccc4F)c(F)cc23)C(C)C1 (stereo not drawn) + Nc1ccc(C#CCN(C(=O)Cc2ncc(C(F)(F)F)cc2C(F)(F)F)c2ccc(F)cc2)nn1")
"< 5.00"
>>> measurement("CCCS(=O)(=O)Nc1ccc(F)c(C(=O)c2c[nH]c3ncc(-c4ccc(Cl)cc4)cc23)c1F + Nc1ccc(C#CCN(C(=O)Cc2ncc(C(F)(F)F)cc2C(F)(F)F)c2ccc(F)cc2)nn1")
"< 5.00"
